These data points were gathered from ChEMBL document CHEMBL3639191.

Target: Histone deacetylase 8 (Homo sapiens)
Sequence (Q9BY41 whole entry): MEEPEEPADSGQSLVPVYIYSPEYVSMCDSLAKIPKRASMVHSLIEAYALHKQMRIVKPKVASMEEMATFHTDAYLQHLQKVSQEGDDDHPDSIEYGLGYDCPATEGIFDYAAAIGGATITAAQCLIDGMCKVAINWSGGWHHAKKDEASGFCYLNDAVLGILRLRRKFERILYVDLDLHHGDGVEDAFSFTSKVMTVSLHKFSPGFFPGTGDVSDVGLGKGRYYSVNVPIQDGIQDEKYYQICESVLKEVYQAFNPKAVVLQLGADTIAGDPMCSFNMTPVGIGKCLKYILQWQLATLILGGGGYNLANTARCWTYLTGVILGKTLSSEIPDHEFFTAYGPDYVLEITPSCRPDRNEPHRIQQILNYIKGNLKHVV
measured metric: pIC50
Numbers only, as −log10 of the molar value.

Before answering, review these 2 worked examples.
{"columns": ["compound", "pIC50"],
 "data": [
  ["COc1cc(-c2nc3cc(/C=C/C(=O)NO)ccc3n2C)ccc1OCc1ccccc1", 5.77],
  ["O=C(/C=C/c1ccc2c(c1)nc(C1CCCCC1)n2CCCO)NO", 6.69]
]}

// below: pIC50 requested for another compound
Entry under test: COc1ccc(-c2nc3cc(/C=C/C(=O)NO)ccc3n2CC(O)CO)cc1 (stereo not drawn) . Its pIC50 was 6.58
